Target: T1, human GREM1 (hGREM1-His; SEQ ID NO: 595) (human, UniProt O60565 25-184)
T1 construct: also called biotin-hGREM1-His; recombinant human GREM1 protein
T1 sequence: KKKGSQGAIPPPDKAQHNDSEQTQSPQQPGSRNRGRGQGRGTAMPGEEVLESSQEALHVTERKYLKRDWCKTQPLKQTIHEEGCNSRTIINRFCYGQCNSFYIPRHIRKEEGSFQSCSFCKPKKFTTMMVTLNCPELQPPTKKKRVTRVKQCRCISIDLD
Experiment: SPR, Biacore T200, 25 C, mAb captured, hGREM1-His injected;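 note: Heparin-supplemented HBS-EP+ used as running buffer, association and dissociation phases followed, Kd computed as koff divided by kon and half-life derived from koff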
Measured attribute: log10 koff (log10 of the value in s⁻¹)
Parameter value (number): base-10 log of koff in s⁻¹.

Qu. Can you look up the measured log10 koff of H2bM2906N (antibody, mouse IgG2, V domains shown, H2M prefix = mouse IgG2 Fc (here H2bM); also called H2M2906N) VH: EVQMVESGGGLVQPGGSLRLSCAASGFTLSNYWMGWVRQAPGKGLEWVANIKQDGSEKYYVDSVRGRFTISRDNAKNSLYLQMNSLRAEDTAVYYCARDYDFWRSFDYWGQGTLVTVSS VL: DIQMTQSPSSVSASVGDRVTITCRASQGVSSWLAWYQQKPGKTPKLLIYVVSSLQSGVPSRFSGRGSGTDFTLTINSLQPEDFATYYCQQGNSFPYTFGQGTKLEIK for me?
Ans. -2.89

Qu. For H4H6233P (antibody, human IgG4, V domains shown, H4H prefix = human IgG4 Fc) VH: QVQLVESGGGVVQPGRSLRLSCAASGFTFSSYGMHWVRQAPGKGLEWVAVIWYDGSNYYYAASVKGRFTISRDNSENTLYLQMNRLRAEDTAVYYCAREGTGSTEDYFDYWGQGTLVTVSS VL: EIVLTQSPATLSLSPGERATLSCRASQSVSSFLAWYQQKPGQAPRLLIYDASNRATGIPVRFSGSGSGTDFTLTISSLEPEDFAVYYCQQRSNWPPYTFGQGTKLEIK then?
Ans. -3.76

Qu. For H2bM2890N (antibody, mouse IgG2, V domains shown, H2M prefix = mouse IgG2 Fc (here H2bM); also called H2M2890N) VH: QVQLVESGGGVVQPGRSLRLTCAASGFTFSSFGMHWVRQAPGKGLEWVAIIWYDGSNKYYADSVKGRFTISRDNSKNTLYLQMNSLRAEDTAVYYCAREDNWTRDYFDYWGQGTLVTVSS VL: EIVLTQSPATLSLSPGERATLSCRASQSVSNFLAWYQQKPGQAPRLLIYDASNRATGIPARFSGSGSGTDFTLTISSLEPEDFAVYYCQQRSNWPPLPFGGGTKVEIK then?
Ans. -3.00

Qu. For H2bM2786N (antibody, mouse IgG2, V domains shown, H2M prefix = mouse IgG2 Fc (here H2bM); also called H2M2786N) VH: EVHLLESGGGLVQPGGSLRLSCAASGFTFSSYVMNWVRQAPGKGLEWVSAISGSGGSTYYGDSVKGRSTISRDNSKNTLYLQMKSLRAEDTAVYYCAKGDIAPIVFDAFDIWGQGTMVTVSS VL: DIQMTQSPSSLSASVGDRVTITCQASQDISNCLNWYQHKPGKAPKLLIYDASYLETGVPSRFSGSGSGTDFTFTISSLQPEDIATYYCQQYDNLPYTFGQGTKLEIK then?
Ans. -2.22

Qu. For H4H2895N (antibody, human IgG4, V domains shown, H4H prefix = human IgG4 Fc) VH: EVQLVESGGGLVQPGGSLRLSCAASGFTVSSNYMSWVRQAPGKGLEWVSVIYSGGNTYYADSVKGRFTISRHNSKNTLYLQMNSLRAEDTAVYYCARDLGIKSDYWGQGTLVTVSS VL: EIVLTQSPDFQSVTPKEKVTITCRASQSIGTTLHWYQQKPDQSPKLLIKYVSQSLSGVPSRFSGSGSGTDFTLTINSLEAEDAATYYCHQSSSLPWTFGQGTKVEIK then?
Ans. -3.88

Qu. For H4H6250P (antibody, human IgG4, V domains shown, H4H prefix = human IgG4 Fc) VH: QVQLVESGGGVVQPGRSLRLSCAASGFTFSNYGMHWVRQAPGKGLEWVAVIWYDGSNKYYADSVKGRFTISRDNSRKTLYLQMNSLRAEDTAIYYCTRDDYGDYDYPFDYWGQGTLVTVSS VL: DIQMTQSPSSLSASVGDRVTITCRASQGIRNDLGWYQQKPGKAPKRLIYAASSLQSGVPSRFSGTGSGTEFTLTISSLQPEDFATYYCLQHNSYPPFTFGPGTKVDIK then?
Ans. -3.53

Qu. For H4H6243P (antibody, human IgG4, V domains shown, H4H prefix = human IgG4 Fc) VH: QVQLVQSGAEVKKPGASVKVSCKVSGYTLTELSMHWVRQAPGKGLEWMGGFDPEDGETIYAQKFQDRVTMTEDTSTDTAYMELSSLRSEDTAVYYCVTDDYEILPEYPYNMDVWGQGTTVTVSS VL: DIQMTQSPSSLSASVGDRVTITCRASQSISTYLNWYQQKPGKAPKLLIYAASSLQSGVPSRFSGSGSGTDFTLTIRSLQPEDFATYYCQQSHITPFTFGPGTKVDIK then?
Ans. -3.75

Qu. For H4H6256P (antibody, human IgG4, V domains shown, H4H prefix = human IgG4 Fc) VH: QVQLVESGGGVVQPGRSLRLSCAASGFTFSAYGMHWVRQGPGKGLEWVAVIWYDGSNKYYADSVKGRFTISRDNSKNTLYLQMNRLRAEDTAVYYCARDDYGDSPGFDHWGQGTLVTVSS VL: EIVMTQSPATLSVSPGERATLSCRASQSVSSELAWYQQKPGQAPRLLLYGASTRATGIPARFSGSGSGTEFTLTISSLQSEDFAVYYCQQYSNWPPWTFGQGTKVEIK then?
Ans. -3.97

Qu. For H3M2929N (antibody, V domains shown, H3M prefix marks the Fc (chimeric, mouse constant domains)) VH: QVQLVESGGGVVQPGRSLRLSCAASGFIFSSYGMHWVRQAPGKGLEWVAVIWNDGSNKYSADSVKGRFTVSRDNSKNTLYLQMNSLKAEDTAVYYCARDGEWEVFDYWGQGTLVTVSS VL: DIVMTQSPVTLSASPGERATLSCRASQSVRSNLAWYQEKPGQAPRLLIYGASTRATGIPARFSGSGSGTEFTLTISSLQSEDFAVYYCQQYNDWPPWTFGQGTKVEIK then?
Ans. -2.44

Qu. For H4H2892N (antibody, human IgG4, V domains shown, H4H prefix = human IgG4 Fc) VH: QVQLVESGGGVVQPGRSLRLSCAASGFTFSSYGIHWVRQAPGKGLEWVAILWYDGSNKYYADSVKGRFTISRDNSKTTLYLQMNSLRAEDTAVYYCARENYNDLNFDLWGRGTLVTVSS VL: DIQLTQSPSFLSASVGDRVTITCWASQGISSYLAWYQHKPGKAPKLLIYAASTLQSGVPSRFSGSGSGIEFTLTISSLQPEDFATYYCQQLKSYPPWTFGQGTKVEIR then?
Ans. -3.76
